- target_desc: truncated c-Myc protein (a.a 354-437) (Homo sapiens, UniProt P01106)
- Construct: bHLH/LZ domain fragment, residues 354-437; purified by DEAE ion exchange; coupled to CM5 chip; no Max present
- Sequence (P01106 369-452): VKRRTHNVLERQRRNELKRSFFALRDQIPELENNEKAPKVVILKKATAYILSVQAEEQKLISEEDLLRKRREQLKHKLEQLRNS
- assay_summary: SPR (Biacore S200, CM5 chip)
readout_name: Kd (nM)
Value expressed in nM; do not type the unit.

Write down the reported Kd of "C=CCNC(=[Se])NN=C(c1ccccc1)c1ncccn1" , test system: truncated c-Myc protein (a.a 354-437) (Homo sapiens, UniProt P01106).
0.562

====

- assay_summary: in vitro
- conditions: human, l02 cells
# viability at 48 h, 10 µM annotations
Value expressed in %; do not type the unit.

Before answering, review these 2 worked examples.
C=CCNC(=[Se])NN=C(c1ccccc1)c1ncccn1 [4a]
79.4
O=C1NCCc2[nH]c(-c3ccncc3)cc21 [PHA-767491]
22.2

# get_value(readout='viability at 48 h, 10 µM', item= CCn1c(=O)c(-c2cc[nH]n2)cc2c(C)nc(N)nc21 [Voxtalisib] )
26.9

# get_value(readout='viability at 48 h, 10 µM', item= Cn1c(=O)n(-c2ccc(C(C)(C)C#N)cc2)c2c3cc(-c4cnc5ccccc5c4)ccc3ncc21 [Dactolisib] )
27.2

# get_value(readout='viability at 48 h, 10 µM', item= O=C1NC(=O)/C(=C/c2ccc3nccc(-c4ccncc4)c3c2)S1 [GSK1059615] )
13.5

# get_value(readout='viability at 48 h, 10 µM', item= COc1ccc(COc2cc3oc(=O)c4cc(C(C)O)ccc4c3cc2OC)cc1 (stereo not shown) [Palomid529] )
58.1

# get_value(readout='viability at 48 h, 10 µM', item= CCn1c(-c2nonc2N)nc2c(C#CC(C)(C)O)ncc(OC[C@H]3CCCNC3)c21 [GSK690693] )
49.3

# get_value(readout='viability at 48 h, 10 µM', item= c1ccc2c(CCNc3ccc(Nc4ccncc4)cc3)c[nH]c2c1 [JNJ26854165] )
38

# get_value(readout='viability at 48 h, 10 µM', item= CNC(=O)Nc1ccc(-c2nc(N3CC4CCC(C3)O4)c3cnn(C4CCC5(CC4)OCCO5)c3n2)cc1 [WYE-125132] )
45.1

# get_value(readout='viability at 48 h, 10 µM', item= Cc1c(CN2CCN(C(=O)[C@H](C)O)CC2)sc2c(N3CCOCC3)nc(-c3cnc(N)nc3)nc12 [Apitolisib] )
37.1
